As a worked illustration, we turn to MIC data collected for Bacillus subtilis ATCC 6633.

For orientation, consider the following solved cases.
# input Using the record for CC(C)C[C@H](NC(=O)[C@H](CC(C)C)NC(=O)[C@H](Cc1c[nH]c2ccccc12)NC(=O)[C@H](CCCCN)NC(=O)[C@H](CC(C)C)NC(=O)[C@H](CC(C)C)NC(=O)[C@@H](N)CCCCN)C(=O)N[C@@H](CCCCN)C(N)=O [KLLKWLLK] , report its MIC.
# output ≥ 48 µM

# input Find the recorded MIC belonging to C[C@@H](O)[C@H](NC(=O)[C@H](Cc1ccccc1)NC(=O)[C@H](CO)NC(=O)[C@@H](NC(=O)[C@@H]1CCCN1C(=O)[C@@H](N)Cc1c[nH]c2ccccc12)[C@@H](C)O)C(=O)O [WPTSFT] and report it.
# output ≥ 300 µM

***
# input Query (compound): CC(C)C[C@H](NC(=O)[C@H](C)NC(=O)CNC(=O)[C@H](CC(C)C)NC(=O)[C@@H](N)Cc1ccccc1)C(=O)N[C@@H](Cc1c[nH]c2ccccc12)C(=O)N[C@@H](CC(N)=O)C(=O)N1CCC[C@H]1C(=O)N[C@@H](C)C(=O)N[C@@H](CCCCN)C(=O)N[C@@H](CO)C(=O)N[C@H](C(=O)N[C@@H](Cc1ccccc1)C(N)=O)C(C)C [FLGALWNPAKSVF] ; field requested: MIC
# output ≥ 50 µM

Source: DBAASP
